pIC50 by entry:
System: RT-112
Assay: cells
Type: functional, cell-based, Homo sapiens
Settings: Homo sapiens, RT-112
Description: SANGER: Inhibition of human RT-112 cell growth in a cell viability assay.
pIC50: −log10 of the molar value.
MEASURE: pIC50

>>> endpoint_value("COc1cc([C@@H]2c3cc4c(cc3[C@@H](O[C@@H]3O[C@@H]5CO[C@@H](C)O[C@H]5[C@H](O)[C@H]3O)[C@H]3COC(=O)[C@H]23)OCO4)cc(OC)c1O [ETOPOSIDE]")
6.21
>>> endpoint_value("COc1cc(F)c(F)c(Nc2ccc(I)cc2F)c1NS(=O)(=O)C1(CC(O)CO)CC1 (centres undefined)")
5.80
>>> endpoint_value("CN(Cc1cnc2nc(N)nc(N)c2n1)c1ccc(C(=O)N[C@@H](CCC(=O)O)C(=O)O)cc1 [METHOTREXATE]")
6.85
>>> endpoint_value("C=CCNC1=C2C[C@@H](C)C[C@H](OC)[C@H](O)[C@@H](C)/C=C(\\C)[C@H](OC(N)=O)[C@@H](OC)/C=C\\C=C(/C)C(=O)NC(=CC1=O)C2=O [TANESPIMYCIN]")
6.85
